test: Cmax in Sprague-Dawley rat plasma at 10 mg/kg, iv measured immediately post treatment by UPLC analysis; type: ADME, organism-based; design: dose 10 mg/kg, route intravenous
TEST_READOUT: Cmax (ng/mL)
Your answer is read as ng/mL, so omit the unit and give the number.

Requested field: Cmax. Item: COc1ccc(/C=C/C(=O)NCCNC(=O)/C=C/c2ccc(OC)cc2OC)c(OC)c1
550

----------
experiment: Cmax in Sprague-Dawley rat plasma at 20 mg/kg, po after 12 hrs by UPLC analysis; type: ADME, organism-based; design: dose 20 mg/kg, route oral
TEST_READOUT: Cmax
Could you write the number and then its unit?

Requested field: Cmax. Item: COc1ccc(/C=C/C(=O)NCCNC(=O)/C=C/c2ccc(OC)cc2OC)c(OC)c1
40 ng/mL

----------
experiment: Cmax in Sprague-Dawley rat plasma at 10 mg/kg, iv after 24 hrs by UPLC analysis; type: ADME, organism-based; set-up: dose 10 mg/kg, route intravenous
TEST_READOUT: Cmax (ng/mL)
Your answer is read as ng/mL, so omit the unit and give the number.

Requested field: Cmax. Item: COc1ccc(/C=C/C(=O)NCCNC(=O)/C=C/c2ccc(OC)cc2OC)c(OC)c1
40

----------
assay: Cmax in Sprague-Dawley rat plasma at 20 mg/kg, po measured immediately post treatment by UPLC analysis; assay type: ADME, organism-based; design: dose 20 mg/kg, route oral
TEST_READOUT: Cmax (ng/mL)
Your answer is read as ng/mL, so omit the unit and give the number.

Requested field: Cmax. Item: COc1ccc(/C=C/C(=O)NCCNC(=O)/C=C/c2ccc(OC)cc2OC)c(OC)c1
270
